Parameter Binding competition: see the listing below.
- Target Entity: p70 (NAMPT) (Homo sapiens, UniProt P43490)
- Construct: endogenous in cells; host or cells: H2122 lung cancer cells
- Sequence (P43490 whole entry): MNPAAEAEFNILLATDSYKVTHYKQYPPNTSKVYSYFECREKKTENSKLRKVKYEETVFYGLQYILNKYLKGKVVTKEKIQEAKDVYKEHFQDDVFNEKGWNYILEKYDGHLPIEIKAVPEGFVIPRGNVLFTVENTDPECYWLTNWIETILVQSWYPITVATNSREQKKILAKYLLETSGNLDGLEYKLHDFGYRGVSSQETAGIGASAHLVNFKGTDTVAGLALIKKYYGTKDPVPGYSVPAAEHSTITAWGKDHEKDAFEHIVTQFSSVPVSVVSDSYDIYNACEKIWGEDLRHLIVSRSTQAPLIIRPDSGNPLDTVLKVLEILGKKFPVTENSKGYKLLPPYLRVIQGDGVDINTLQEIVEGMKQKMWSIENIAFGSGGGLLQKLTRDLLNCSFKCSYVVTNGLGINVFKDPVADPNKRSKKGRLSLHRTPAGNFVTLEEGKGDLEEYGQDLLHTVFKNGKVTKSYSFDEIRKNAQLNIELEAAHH
- Protocol Summary: binding competition for photo-crosslinking of P7C3-S326 to p70 in H2122 cells
- Settings: 0.3 μM P7C3-S326 plus 5 μM competitor, p70 band intensity, P7C3-S326 alone compared with plus competitor, vehicle 1.0
Recorded Metric: Binding competition

>>> data_value("Cl.NCC(F)Cn1c2ccc(Br)cc2c2cc(Br)ccc21 (centres unmarked)")
2.6
>>> data_value("OC(CNc1cccc2ccccc12)Cn1c2ccc(Cl)cc2c2cc(Cl)ccc21 (centres unmarked)")
2.5
>>> data_value("COc1cccc(NCC(Cn2c3ccc(Br)cc3c3cc(Br)ccc32)OC)c1 (centres unmarked)")
1.7
>>> data_value("COc1cccc(NCC(O)Cn2c3ccc(Br)cc3c3cc(N=[N+]=[N-])ccc32)c1 (centres unmarked)")
5.5
>>> data_value("CN[C@H]1CC[C@@H](c2ccc(Cl)c(Cl)c2)c2ccccc21 [S123, Zoloft, reference compound]")
1.5

---

- Target Entity: p70 (NAMPT) (Homo sapiens, UniProt P43490)
- Construct: endogenous in cells; host or cells: H2122 lung cancer cells
- Protocol Summary: binding competition for photo-crosslinking of P7C3-S326 to p70 in H2122 cells
- Settings: 0.3 μM P7C3-S326 plus 5 μM competitor, p70 band intensity, P7C3-S326 alone compared with plus competitor, vehicle 1.0
- Experimental: Cultured cells were co-exposed to P7C3-S326 (0.3 uM) and the individual P7C3 variants (5 uM), exposed to UV light, lysed, clicked to a fluorescent dye and run on SDS gels (FIG. 11). […] H2122 cells were incubated with the P7C3-S326 (0.3 μM) in the absence or presence of P7C3 analogs for 2 hours following by UV crosslinking. […] The p70 band intensity was analyzed and quantified by Image J, and the relative intensity in each assay was normalized to that of the DMSO control.
Quick reference for Binding competition among some molecules
Recorded Metric: Binding competition

>>> data_value("CN(C)C(CF)CN1c2ccccc2CCc2ccccc21 (centres unmarked) [S149]")
1.2
>>> data_value("Nc1ccc(SCC(O)Cn2c3ccc(Br)cc3c3cc(Br)ccc32)cc1 (centres unmarked) [S96]")
3.9
>>> data_value("COc1cccc(NC[C@H](F)Cn2c3ccc(Br)cc3c3cc(Br)ccc32)n1 [(−)-S243]")
4.8
>>> data_value("OC(CSc1ccccc1)CN1c2ccccc2CCc2ccccc21 (centres unmarked) [S134]")
1.9
>>> data_value("O=S(=O)(CC(O)Cn1c2ccc(Br)cc2c2cc(Br)ccc21)c1ccc(O)cc1 (centres unmarked) [S94]")
3.8

---

Readings of Binding competition for the listed compounds
- Target Entity: p70 (NAMPT) (Homo sapiens, UniProt P43490)
- Construct: endogenous in cells; host or cells: H2122 lung cancer cells
- Protocol Summary: binding competition for photo-crosslinking of P7C3-S326 to p70 in H2122 cells
- Settings: 0.3 μM P7C3-S326 plus 5 μM competitor, p70 band intensity, P7C3-S326 alone compared with plus competitor, vehicle 1.0
- Experimental: Cultured cells were co-exposed to P7C3-S326 (0.3 uM) and the individual P7C3 variants (5 uM), exposed to UV light, lysed, clicked to a fluorescent dye and run on SDS gels (FIG. 11). […] H2122 cells were incubated with the P7C3-S326 (0.3 μM) in the absence or presence of P7C3 analogs for 2 hours following by UV crosslinking. […] The p70 band intensity was analyzed and quantified by Image J, and the relative intensity in each assay was normalized to that of the DMSO control.
Recorded Metric: Binding competition

>>> data_value("Oc1ccc(SCC(O)Cn2c3ccc(Br)cc3c3cc(Br)ccc32)cc1 (centres unmarked)")
2.5
>>> data_value("Cc1ccc2[nH]c3ccc(C)cc3c2c1")
1.5
>>> data_value("OC(COc1ccccc1)CN1c2ccccc2CCc2ccccc21 (centres unmarked)")
3.4
>>> data_value("OC(Cn1ccc2ccccc21)Cn1c2ccc(Br)cc2c2cc(Br)ccc21 (centres unmarked)")
2.7
>>> data_value("COc1ccc(SCC(O)Cn2c3ccc(Br)cc3c3cc(Br)ccc32)cc1 (centres unmarked)")
2.7

---

- Target Entity: p70 (NAMPT) (Homo sapiens, UniProt P43490)
- Construct: endogenous in cells; host or cells: H2122 lung cancer cells
- Protocol Summary: binding competition for photo-crosslinking of P7C3-S326 to p70 in H2122 cells
- Settings: 0.3 μM P7C3-S326 plus 5 μM competitor, p70 band intensity, P7C3-S326 alone compared with plus competitor, vehicle 1.0
Classification field: enter true for Binding competition values not below 2, false for values below it.

>>> label_value("Cn1c2ccc(Br)cc2c2cc(Br)ccc21")
"true"
>>> label_value("OC(CNc1cccc2ccccc12)Cn1c(-c2ccccc2)cc2ccccc21 (stereo not shown)")
"false"
>>> label_value("CC(O)(COc1ccccc1)Cn1c2ccc(C#N)cc2c2cc(C#N)ccc21 (stereo not shown)")
"true"
>>> label_value("OCc1cc2c(cn1)[nH]c1ccc(Br)cc12")
"true"
>>> label_value("CC(C)(C)OC(=O)CCOCCOCCOCCOc1cccc(NCC(O)Cn2c3ccc(Br)cc3c3cc(Br)ccc32)c1 (stereo not shown)")
"false"
>>> label_value("Brc1ccc2[nH]c3ccc(Br)cc3c2c1")
"true"
>>> label_value("CN1C(=O)CN=C(c2ccc(Cl)cc2)c2cc(Cl)ccc21")
"true"
>>> label_value("CNCCC(Oc1ccc(C(F)(F)F)cc1)c1ccccc1 (stereo not shown) [S122, Prozac, reference compound]")
"false"
>>> label_value("OC(CN1c2ccccc2CCc2ccccc21)Cn1c2ccccc2c2ccccc21 (stereo not shown)")
"false"
>>> label_value("N#Cc1ccc2c(c1)c1cc(C#N)ccc1n2CC(O)CSc1ccccc1 (stereo not shown)")
"true"

---

- Tested on: hippocampal neurogenesis (Dentate Gyrus)
- Protocol Summary: in vivo neurogenesis assay (BrdU+ cells in dentate gyrus)
- Set-up: species or system mice
- Settings: living mice; vehicle (DMSO) 7.3
Recorded Metric: Neurogenesis # BrdU+ Cells (X10E06)/mm3 Dentate Gyrus

>>> data_value("OC(CNc1ncccn1)Cn1c2ccc(Br)cc2c2cc(Br)ccc21 (centres unmarked)")
"7.8 (X10E06)/mm3"
>>> data_value("[N-]=[N+]=NCC(F)Cn1c2ccc(Br)cc2c2cc(Br)ccc21 (centres unmarked)")
"6.9 (X10E06)/mm3"
>>> data_value("CN(C)CCCC1(c2ccc(F)cc2)OCc2cc(C#N)ccc21 (centres unmarked) [S119, Celexa, reference compound]")
"8.6 (X10E06)/mm3"
>>> data_value("COc1ccc(S(=O)(=O)CC(O)Cn2c3ccc(Br)cc3c3cc(Br)ccc32)cc1 (centres unmarked)")
"12.8 (X10E06)/mm3"
>>> data_value("COc1ccc(NCC(F)Cn2c3ccc(Br)cc3c3cc(Br)ccc32)cc1 (centres unmarked)")
"12.6 (X10E06)/mm3"
>>> data_value("Cc1cc2c3cc(Br)ccc3n(CC(O)COc3ccccc3)c2cn1 (centres unmarked)")
"8.4 (X10E06)/mm3"
>>> data_value("CN(C)C[C@@H](O)CN1c2ccccc2CCc2ccccc21")
"6.8 (X10E06)/mm3"
>>> data_value("C=C/C=N\\C=C\\NCC(O)Cn1c2ccc(Br)cc2c2cc(Br)ccc21 (centres unmarked)")
"7.2 (X10E06)/mm3"
>>> data_value("N=c1ccccn1CC(O)Cn1c2ccc(Br)cc2c2cc(Br)ccc21 (centres unmarked)")
"12.2 (X10E06)/mm3"
>>> data_value("NC(COc1ccccc1)Cn1c2ccc(Br)cc2c2cc(Br)ccc21 (centres unmarked)")
"7.6 (X10E06)/mm3"
>>> data_value("FC(CNc1ccccc1)Cn1c2ccc(Br)cc2c2cc(Br)ccc21 (centres unmarked)")
"13.8 (X10E06)/mm3"
>>> data_value("COc1cccc(S(=O)(=O)CC(O)Cn2c3ccc(Br)cc3c3cc(Br)ccc32)c1 (centres unmarked)")
"11.8 (X10E06)/mm3"
>>> data_value("CCOC(=O)c1ncc2c(n1)c1ccccc1n2S(=O)(=O)c1ccc(C)cc1")
"14.5 (X10E06)/mm3"
>>> data_value("O=C(O)c1ccc2[nH]c3ccc(Br)cc3c2c1")
"15.2 (X10E06)/mm3"
>>> data_value("OC(COc1ccccc1)Cn1c2ccccc2c2cc(Br)ccc21 (centres unmarked)")
"8.4 (X10E06)/mm3"
>>> data_value("O=S(=O)(CC(F)Cn1c2ccc(Br)cc2c2cc(Br)ccc21)c1ccccc1 (centres unmarked)")
"17.1 (X10E06)/mm3"
>>> data_value("COc1cccc(NCC(C)(O)Cn2c3ccc(Br)cc3c3cc(Br)ccc32)c1 (centres unmarked)")
"16.7 (X10E06)/mm3"
>>> data_value("CN[C@H]1CC[C@@H](c2ccc(Cl)c(Cl)c2)c2ccccc21 [S123, Zoloft, reference compound]")
"9.4 (X10E06)/mm3"
>>> data_value("OC(CNc1ccccc1)CN(c1ccc(Br)cc1)c1ccc(Br)cc1 (centres unmarked)")
"11.7 (X10E06)/mm3"
>>> data_value("CN1C(=O)CN=C(c2ccc(Cl)cc2)c2cc(Cl)ccc21")
"10.8 (X10E06)/mm3"
